- Test system: restraint stress-induced defecation
- measurement-notes: Action on restraint stress-induced defecation
- Format: in vivo, male Wistar rats
- measurement-parameters: 10 mg/kg p.o. 1 hour before restraint stress; measured 1 hour after stress initiation; rats, n=10; control of each sub-table 1.06-1.71 g
// NB: equality with 0.6 g counts as not satisfied; only Wet weight of fecal pellets strictly below is satisfied

O=C(CC(O)(C(F)(F)F)C(F)(F)F)Nc1cccc2c1C(=O)c1sccc1CS2(=O)=O: not satisfied
O=C1c2sccc2CS(=O)(=O)c2cccc(Nc3cc(Cl)ccc3O)c21: satisfied
CCC(O)(CC)C(=O)Nc1cccc2c1C(=O)c1sccc1CS2(=O)=O: satisfied
CCOC(=O)Nc1cccc2c1C(=O)c1sccc1CS2(=O)=O: satisfied
CC(C)(C)C(=O)Nc1cccc2c1C(=O)c1sccc1CS2(=O)=O: not satisfied
O=C(Nc1cccc2c1C(=O)c1sccc1CS2(=O)=O)c1ccco1: not satisfied
C[C@](O)(C(=O)Nc1cccc2c1C(=O)c1sccc1CS2(=O)=O)C(F)(F)F: satisfied

###

- System: restraint stress-induced defecation
- measurement-notes: Action on restraint stress-induced defecation
- Format: in vivo, male Wistar rats
- measurement-parameters: 10 mg/kg p.o. 1 hour before restraint stress; measured 1 hour after stress initiation; rats, n=10; control of each sub-table 1.06-1.71 g
measured-attribute: Wet weight of fecal pellets (g)

CC(O)(C(=O)Nc1ccc(Br)c2c1C(=O)c1sccc1CS2(=O)=O)C(F)(F)F (centres unmarked): 0.81
Cc1cc(C(=O)Nc2cccc3c2C(=O)c2sccc2CS3(=O)=O)[nH]n1: 0.39
O=C1c2sccc2CS(=O)(=O)c2cccc(Nc3ccccc3)c21: 0.36
CC(O)(C(=O)Nc1ccc(Cl)c2c1C(=O)c1sccc1CS2(=O)=O)C(F)(F)F (centres unmarked): 0.53
Cc1ccc(NC(=O)C(C)(O)C(F)(F)F)c2c1S(=O)(=O)Cc1ccsc1C2=O (centres unmarked): 0.67
CC(O)(C(=O)Nc1ccc(F)c2c1C(=O)c1sccc1CS2(=O)=O)C(F)(F)F (centres unmarked): 0.41
CCOc1cc2nc(N3CCOCC3)nc(N3CCC(n4c(=O)c5cc(C)ccc5n(C)c4=O)CC3)c2cc1OCC [KF24345, reference compound]: 0.48
O=C1c2sccc2CS(=O)(=O)c2cccc(NCc3ccccc3)c21: 0.41
